biological target: T1, soluble human kallikrein related peptidase 2 (hK2) protein (human, UniProt P20151 19-261); test: SPR; antibody captured by anti-Fc antibody, soluble hK2 injected; 1:1 Langmuir fit
T1 construct: The stated signal peptide is left out here; also called soluble hK2; KLK2
T1 sequence (P20151 19-261): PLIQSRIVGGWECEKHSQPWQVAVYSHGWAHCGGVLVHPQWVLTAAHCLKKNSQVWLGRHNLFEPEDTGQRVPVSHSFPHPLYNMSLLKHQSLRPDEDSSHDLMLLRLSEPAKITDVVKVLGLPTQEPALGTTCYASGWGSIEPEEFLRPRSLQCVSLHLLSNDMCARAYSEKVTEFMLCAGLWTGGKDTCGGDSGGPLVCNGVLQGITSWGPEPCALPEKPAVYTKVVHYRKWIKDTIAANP
Exercise: for every item that follows, state its recorded Kd.
// units = nM; emit number, no label

Query: Return reported Kd. Input binder: KL2B30 (Fab) (Fab, V domains shown) VH: QVQLQESGPGLVKPSETLSLTCTVSGGSISSYYWSWIRQPPGKGLEWIGYIYYSGSTNYNPSLKSRVTISVDTSKNQFSLKLSSVTAADTAVYYCAGTTIFGVVTPNFYYGMDVWGQGTTVTVSS VL: DIQMTQSPSFLSASVGDRVTITCRASQGISSYLAWYQQKPGKAPKFLIYAASTLQSGVPSRFSGSGSGTEFTLTISSLQPEDFATYYCQQLNSYPLTFGGGTKVEIK
Result: 0.46

Query: Return reported Kd. Input binder: KL2B53 (Fab) (Fab, V domains shown) VH: EVQLVESGGGVVQPGRSLRLSCVASGFTFSSYDIHWVRQAPGKGLEWVAIISYDGSKKDYTDSVKGRFTISRDNSKNTLYLQMDSLRVEDSAVYSCARESGWSHYYYYGMDVWGQGTMVTVSS VL: DIVMTQSPSSLSASVGDRVTITCRASQDISNYLAWYQQKPGKVPKFLIYAASTLHSGVPSRFSGSGSGTDFTLTISSLQPEDVATYYCQKYNSAPYTFGQGTRLEIK
Result: 0.08

Query: Return reported Kd. Input binder: KL2B494 (Fab) (Fab, V domains shown) VH: QVQLVESGGGLVQPGGSLRLSCAASGFTFSHYAMSWVRQAPGKGLEWVSTIGGSGGSTYYADSVKGRFTISRDNSKNTLYLQMNSLRAEDTAVYYCAKPHIVMVTALLYDGMDVWGQGTMVTVSS VL: SSELTQPPSVSVAPGQTARITCGGNNIGSKSVHWYQQKPGQAPVLVVYDDSDRPSGIPERFSGSNSGNTATLTISRVEAGDEADYYCQVWDSSSDHVVFGGGTKLTVL
Result: 0.053

Query: Return reported Kd. Input binder: KL2B467 (Fab) (Fab, V domains shown) VH: QVQLVESGGGVVQPGRSLRLSCAASGFTFSYYGMHWVRQAPGKGLEWVAFISYDGSNKYYADSVKGRFTISRDNSKNTLYLQMNSLRAEDTAVYYCAHLPYSGSYWAFDYWGQGTQVTVSS VL: QSVLTQPPSVSVAPGQTASITCGGDNIGSKSVHWYQQKPGQAPVLVVYDNSDRPSGIPERFSGSNSGTTATLTISRVEAGDEADYYCQVWDSSSDHPVVFGGGTKVTV
Result: 0.078

Query: Return reported Kd. Input binder: KL2B242 (Fab) (Fab, V domains shown) VH: QVQLQESGPGLVKPSETLSLTCTVSGGSISSYYWSWLRQPAGSGLEWIGRLYVSGFTNYNPSLKSRVTLSLDPSRNQLSLKLSSVTAADTAVYYCAGDSGNYWGWFDPWGQGTLVTVSS VL: SYELTQPPSVSVSPGETASITCSGDQLGENYACWYQQKPGQSPVLVIYQDSKRPSGIPERFSGSNSGNTATLTISGTQALDEADYYCQAWDNSIVVFGGGTKLTVL
Result: 0.04

Values compiled from patent US20250099635A1.
